Reported values of inhibition at 10 µM for individual entries
System: HCT-116
method: Growth inhibition of human HCT116 cells at 10 uM after 72 hrs by SRB assay
Assay type: functional
condition.details: HCT-116, 72 h
Just the number in %, nothing appended.

// solved cases for inhibition at 10 µM follow
Reported inhibition at 10 µM for `COc1ccc(Nc2nc(Nc3ccc(OC)cc3)nc(N3CCOCC3)n2)cc1` was 53.3

Data point: `NC(=O)c1ccc(Nc2nc(Nc3ccccc3)nc(N3CCOCC3)n2)cc1` ; inhibition at 10 µM = 85.8

Short answer for `COc1ccc(Nc2nc(Nc3ccc(S(N)(=O)=O)cc3)nc(N3CCOCC3)n2)cc1` : inhibition at 10 µM was 69

Note to self: inhibition at 10 µM recorded for `COc1ccc(Nc2nc(N3CCOCC3)nc(N3CCOCC3)n2)cc1` was 6.9

Lab book: inhibition at 10 µM of `Clc1ccc(Nc2nc(Nc3ccccc3)nc(N3CCOCC3)n2)cc1` noted as 51.7

New cases:
In plain terms, `Fc1ccc(Nc2nc(NCc3ccccc3)nc(N3CCOCC3)n2)cc1` has a documented inhibition at 10 µM of 10.1

For `NS(=O)(=O)c1ccc(Nc2nc(Nc3ccccc3)nc(N3CCOCC3)n2)cc1` the compound record lists inhibition at 10 µM as 96.2

// field: inhibition at 10 µM; key: `CSc1ccc(Nc2nc(Nc3ccc(C)cc3)nc(N3CCOCC3)n2)cc1` ; value = 71.1
